target: human recombinant COX-2 (Homo sapiens, UniProt P35354); construct: purchased Cayman Chemicals Inc. 560131; assay: In vitro COX-2 inhibition assay (colorimetric COX inhibitor screening kit, Cayman); type: biochemical; conditions: IC50 (COX-1)/IC50 (COX-2)
Metric: SI (COX-1/ COX-2)
Give bare numbers.

Recorded results for 2 compounds are shown here.
O=C1N=C(N2CCCCC2)S/C1=C\c1cn(-c2ccccc2)nc1-c1ccccc1 [Compound 3] = 41
COc1ccc(-c2nn(-c3ccccc3)cc2/C=C2\SC(N3CCCCC3)=NC2=O)cc1 [Compound 7] = 114

Give SI (COX-1/ COX-2) for all compounds that follow.
1. Cc1nn(-c2ccccc2)c(Cl)c1/C=C1\SC(N2CCOCC2)=NC1=O [Compound 2]
2. Cc1ccc(-c2nn(-c3ccccc3)cc2/C=C2\SC(N3CCCCC3)=NC2=O)cc1 [Compound 5]

**Result**
[90, 27]

###

Molecular target: human recombinant COX-2 (Homo sapiens, UniProt P35354)
Sequence (P35354 18-604): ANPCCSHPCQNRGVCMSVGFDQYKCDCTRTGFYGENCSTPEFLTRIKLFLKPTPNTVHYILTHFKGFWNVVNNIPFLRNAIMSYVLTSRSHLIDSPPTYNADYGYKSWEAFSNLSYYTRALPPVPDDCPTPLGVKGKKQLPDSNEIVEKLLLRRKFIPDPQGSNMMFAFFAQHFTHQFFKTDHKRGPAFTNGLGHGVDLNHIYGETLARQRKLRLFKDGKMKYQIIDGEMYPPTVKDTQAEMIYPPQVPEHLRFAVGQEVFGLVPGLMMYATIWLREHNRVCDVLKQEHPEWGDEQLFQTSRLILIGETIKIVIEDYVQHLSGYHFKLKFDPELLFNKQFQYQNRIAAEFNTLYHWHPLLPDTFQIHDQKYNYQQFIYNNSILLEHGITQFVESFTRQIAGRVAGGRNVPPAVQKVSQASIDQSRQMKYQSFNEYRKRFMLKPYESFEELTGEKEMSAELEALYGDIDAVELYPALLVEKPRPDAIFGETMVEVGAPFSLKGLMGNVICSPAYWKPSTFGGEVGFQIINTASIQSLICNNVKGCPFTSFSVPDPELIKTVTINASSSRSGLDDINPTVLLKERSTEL
Experiment: In vitro COX-2 inhibition assay (colorimetric COX inhibitor screening kit, Cayman)
Conditions: mean of three determinations
Metric: IC50 (nM)
Numbers only, in nM.

Recorded results for 3 molecules are shown here.
Cc1nn(-c2ccccc2)c(Cl)c1/C=C1\SC(N2CCOCC2)=NC1=O [Compound 2] = 90
O=C1N=C(N2CCOCC2)S/C1=C\c1cn(-c2ccccc2)nc1-c1ccccc1 [Compound 4] = 140
O=C1N=C(N2CCOCC2)S/C1=C\c1cn(-c2ccccc2)nc1-c1ccc(Br)cc1 [Compound 10] = 110

Give IC50 for all molecules that follow.
1. O=C1N=C(N2CCCCC2)S/C1=C\c1cn(-c2ccccc2)nc1-c1ccc(Br)cc1 [Compound 9]
2. O=C1N=C(N2CCCCC2)S/C1=C\c1cn(-c2ccccc2)nc1-c1ccccc1 [Compound 3]
3. Cc1nn(-c2ccccc2)c(Cl)c1/C=C1\SC(N2CCCCC2)=NC1=O [Compound 1]
4. COc1ccc(-c2nn(-c3ccccc3)cc2/C=C2\SC(N3CCOCC3)=NC2=O)cc1 [Compound 8]
5. Cc1ccc(-c2nn(-c3ccccc3)cc2/C=C2\SC(N3CCCCC3)=NC2=O)cc1 [Compound 5]
6. Cc1ccc(-c2nn(-c3ccccc3)cc2/C=C2\SC(N3CCOCC3)=NC2=O)cc1 [Compound 6]
7. COc1ccc(-c2nn(-c3ccccc3)cc2/C=C2\SC(N3CCCCC3)=NC2=O)cc1 [Compound 7]

**Result**
1. 130
2. 190
3. 110
4. 110
5. 340
6. 180
7. 90
